inhibition at 10 µM for assorted molecules
Test system: NIH3T3
Assay: Percent inhibition at 10 uM determined against mouse NIH 3T3 cells
Assay type: functional
Reply with just the number (in %).

Reference set (4 entries):
OC(Cc1ccccc1)(c1ccccc1)c1ccccc1 = 98
CCOC(c1ccccc1)(c1ccccc1)c1ccc(-c2ccccc2)cc1 = 99
O=[N+]([O-])c1ccc(C(O)(c2ccccc2)c2ccccc2)c(Cl)c1 = 94
OC(c1ccccc1)(c1ccccc1)c1ccccc1 = 99

// moving on: another record for inhibition at 10 µM
QUERY: Indicate its recorded inhibition at 10 µM; the molecule in question is Oc1ccccc1C(O)(c1ccccc1)c1ccccc1Cl (stereo not given)
RESULT: 99
